Kindly supply the reported IC50 values for the records listed here.
System: HepG2
Experiment: Antiproliferative activity against human HepG2 cells assessed as inhibition of cell proliferation measured after 72 hrs by MTT assay
Assay type: functional, cell-based
Details: HepG2, 72 h

Consider the reported IC50 for these compounds:
smiles_code=COc1ccc2[nH]cc(CCNC(C)=O)c2c1 parameter_measured=IC50 result="> 30 µM"
smiles_code=COc1ccc2[nH]cc(CCNC(=O)c3ccccc3Nc3ccccc3)c2c1 parameter_measured=IC50 result="> 30 µM"
smiles_code=O=c1[nH]cc(F)c(=O)[nH]1 parameter_measured=IC50 result="> 30 µM"

Would you be so kind as to report IC50 for each listed record?
1. O=C(NCCc1c[nH]c2ccccc12)c1ccccc1NCCCCO
2. O=C(NCCc1c[nH]c2ccccc12)c1ccccc1NC1CC1
3. Cc1cccc(Nc2ccccc2C(=O)NCCc2c[nH]c3ccc(O)cc23)c1C

**A:**
> 30 µM
28.4 µM
17 µM

* * *

Experiment: Cytotoxicity against LPS-stimulated mouse RAW264.7 cells assessed as cell viability at 5 to 20 microM measured after 24 hrs
Type: cell-based
Conditions: LPS-stimulated RAW264.7 cells, dose 5-20 µM, read-out: Activity
Parameter Measured: viability at 24 h

// viability at 24 h lookup, compound = Cc1c(Cl)cccc1Nc1ccccc1C(=O)NCCc1c[nH]c2ccccc12 , result: > 80%

* * *

Assay: AUC (0 to t) in Sprague-Dawley rat at 100 mg/kg, ig measured for 24 hrs by LC-MS analysis
Assay type: ADME, organism-based
Set-up: time 24 hrs, dose 100 mg/kg
Details: in vivo, po
Parameter Measured: AUC(0-t) at 24 h (ng·h/mL)
Numbers only, in ng·h/mL.

// AUC(0-t) at 24 h lookup, compound = Cc1c(Cl)cccc1Nc1ccccc1C(=O)NCCc1c[nH]c2ccccc12 , result: 1670

* * *

Kindly supply the reported IC50 values for the records listed here.
Test system: MGC-803
Experiment: Antiproliferative activity against human MGC-803 cells assessed as inhibition of cell proliferation measured after 72 hrs by MTT assay
Assay type: functional, cell-based
Details: MGC-803, 72 h

Consider the reported IC50 for these compounds:
smiles_code=COc1ccc2[nH]cc(CCNC(=O)c3ccccc3Nc3ccccc3)c2c1 parameter_measured=IC50 result="12.8 µM"
smiles_code=O=C(NCCc1c[nH]c2ccccc12)c1ccccc1NC1CCCCC1 parameter_measured=IC50 result="> 30 µM"
smiles_code=O=C(NCCc1c[nH]c2ccccc12)c1ccccc1NC1CC1 parameter_measured=IC50 result="> 30 µM"
smiles_code=Cc1cccc(Nc2ccccc2C(=O)NCCc2c[nH]c3ccccc23)c1C parameter_measured=IC50 result="> 30 µM"
smiles_code=O=C(NCCc1c[nH]c2ccccc12)c1ccccc1NCCCCO parameter_measured=IC50 result="> 30 µM"

Continue with the next compound.
// IC50 lookup, compound = CN(C)c1ccccc1C(=O)NCCc1c[nH]c2ccccc12 , result: > 30 µM

* * *

System: HepG2
Test: Antiproliferative activity against human HepG2 cells assessed as inhibition of cell proliferation measured after 72 hrs by MTT assay
Type: functional, cell-based
Details: HepG2, 72 h
Parameter Measured: IC50 (µM)
Numbers only, in µM.

smiles_code=O=C(NCCc1c[nH]c2ccccc12)c1ccccc1NC1CCCC1 unit_label=µM number=28.8
smiles_code=Cc1cccc(Nc2ccccc2C(=O)NCCc2c[nH]c3ccccc23)c1C unit_label=µM number=21.7
smiles_code=Cc1c(Cl)cccc1Nc1ccccc1C(=O)NCCc1c[nH]c2ccccc12 unit_label=µM number=7.37

// IC50 lookup, compound = O=C(NCCc1c[nH]c2ccccc12)c1ccccc1NC1CCCCC1 , result: 28.6

* * *

Experiment: Cmax in Sprague-Dawley rat at 100 mg/kg, ig measured for 24 hrs by LC-MS analysis
Format: ADME, organism-based
Parameters: route intragastric, time 24 hrs, dose 100 mg/kg
Conditions: in vivo, po
Parameter Measured: Cmax (µg/mL)
Answers are plain numbers, in µg/mL.

// Cmax lookup, molecule = Cc1c(Cl)cccc1Nc1ccccc1C(=O)NCCc1c[nH]c2ccccc12 , result: 0.149

* * *

System: HepG2
Assay: Antiproliferative activity against human HepG2 cells assessed as inhibition of cell proliferation measured after 72 hrs by MTT assay
Assay type: functional, cell-based
Conditions: HepG2, 72 h
Parameter Measured: IC50 (µM)
Answers are plain numbers, in µM.

smiles_code=COc1ccc2[nH]cc(CCNC(=O)c3ccccc3Nc3cccc(Cl)c3C)c2c1 unit_label=µM number=21.9

Continue with the next compound.
// IC50 lookup, compound = CN(c1ccccc1)c1ccccc1C(=O)NCCc1c[nH]c2ccccc12 , result: 21.3

* * *

Assay: Observed AUC (0 to infinity) in Sprague-Dawley rat at 100 mg/kg, ig measured for 24 hrs by LC-MS analysis
Format: ADME, organism-based
Set-up: route intragastric, time 24 hrs, dose 100 mg/kg
Conditions: in vivo, po
Parameter Measured: AUC(0-inf) (ng·h/mL)
One number for each entry, in ng·h/mL.

// AUC(0-inf) lookup, compound = Cc1c(Cl)cccc1Nc1ccccc1C(=O)NCCc1c[nH]c2ccccc12 , result: 1930

* * *

Test: Toxicity in po dosed Kunming mouse
Format: organism-based
Conditions: in vivo
Parameter Measured: LD50

// LD50 lookup, compound = Cc1c(Cl)cccc1Nc1ccccc1C(=O)NCCc1c[nH]c2ccccc12 , result: > 1000 mg/kg

* * *

Test system: MGC-803
Test: Antiproliferative activity against human MGC-803 cells assessed as inhibition of cell proliferation measured after 72 hrs by MTT assay
Assay type: functional, cell-based
Details: MGC-803, 72 h
Kindly supply the reported pIC50 values for the records listed here.
Answers are plain numbers, as −log10 of the molar value.

Would you be so kind as to report pIC50 for each listed record?
1. COc1ccc2[nH]cc(CCNC(=O)c3ccccc3Nc3cccc(Cl)c3C)c2c1
2. CN(c1ccccc1)c1ccccc1C(=O)NCCc1c[nH]c2ccccc12
3. Cc1c(Cl)cccc1Nc1ccccc1C(=O)NCCc1c[nH]c2ccccc12

**A:**
1. 5.01
2. 4.96
3. 5.00

Would you be so kind as to report pIC50 for each listed record?
1. O=c1[nH]cc(F)c(=O)[nH]1
2. Cc1cccc(Nc2ccccc2C(=O)NCCc2c[nH]c3ccc(O)cc23)c1C

**A:**
4.54
4.78

* * *

Test system: HepG2
Test: Antiproliferative activity against human HepG2 cells assessed as inhibition of cell proliferation measured after 72 hrs by MTT assay
Format: functional, cell-based
Details: HepG2, 72 h
Parameter Measured: IC50

smiles_code=Cc1ccc(S(=O)(=O)Nc2ccccc2C(=O)NCCc2c[nH]c3ccccc23)cc1 target_under_test=HepG2 result="> 30 µM"

Would you be so kind as to report IC50 for each listed record?
1. COc1ccc(CCNc2ccccc2C(=O)NCCc2c[nH]c3ccccc23)cc1OC
2. CN(C)c1ccccc1C(=O)NCCc1c[nH]c2ccccc12

**A:**
> 30 µM
> 30 µM
